The measured values listed here are drawn from patent US20250197490A1.

Listing of entries alongside the reported hCRHR1-Luc 0.5 nM CRH IC50.
Target: T1, corticotropin-releasing hormone (CRH) peptide (human and mouse, UniProt P01143 145-185 (rat entry), not fully specified)
T1 peptide: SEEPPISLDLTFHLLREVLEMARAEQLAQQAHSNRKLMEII
Experiment: cell-based or functional assay
metric_name: hCRHR1-Luc 0.5 nM CRH IC50 (nM)

INSERT INTO results (binder, value_measured) VALUES
  ('PR302334-11 (antibody, human IgG1, kappa, V domains shown) VH: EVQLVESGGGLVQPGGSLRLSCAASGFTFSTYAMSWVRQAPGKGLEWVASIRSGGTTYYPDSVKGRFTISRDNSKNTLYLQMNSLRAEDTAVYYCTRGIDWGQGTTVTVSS VL: DIQMTQSSLSASVSLGDRVTITCKASQSVNNDVAWYQQKPGKAPRLLIYYASNRYTGVPSRFSGSGSGTDFTFTISSLQPEDIATYYCQQDYSSWTFGGGTKVEIKR', 1),
  ('PR302334-7 (antibody, human IgG1, kappa, V domains shown) VH: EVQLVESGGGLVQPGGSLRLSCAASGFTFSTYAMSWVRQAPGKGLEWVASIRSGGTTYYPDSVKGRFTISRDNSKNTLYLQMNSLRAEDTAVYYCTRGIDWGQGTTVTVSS VL: EIVMTQSPATLSVSPGERATLSCKASQSVNNDVAWYQQKPGQAPRLLIYYASNRYTGIPARFSGSGSGTEFTLTISSLQSEDFAVYYCQQDYSSWTFGGGTKVEIKR', 0.996),
  ('PR302334-3 (antibody, human IgG1, kappa, V domains shown) VH: EVKLVESGGGLVKPGGSLKLSCAASGFTFSTYAMSWVRQTPEKRLEWVASIRSGGTTYYPDSVKGRFTISRDNARNILYLQMSSLRSEDTAIYYCTRGIDWGQGTLVTVSA VL: DIVMTQSPDSLAVSLGERATINCKASQSVNNDVAWYQQKPGQPPRLLIYYASNRYTGVPDRFSGSGSGTDFTLTISSLQAEDVAVYYCQQDYSSWTFGGGTKVEIKR', 0.542),
  ('PR302334-4 (antibody, human IgG1, kappa, V domains shown) VH: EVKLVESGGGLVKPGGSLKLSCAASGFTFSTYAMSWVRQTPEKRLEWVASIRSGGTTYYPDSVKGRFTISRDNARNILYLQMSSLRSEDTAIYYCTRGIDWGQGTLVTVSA VL: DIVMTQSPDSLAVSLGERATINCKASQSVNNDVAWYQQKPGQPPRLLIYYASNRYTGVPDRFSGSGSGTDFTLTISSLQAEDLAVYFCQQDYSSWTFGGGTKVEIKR', 0.553),
  ('PR302334-1 (antibody, human IgG1, kappa, V domains shown) VH: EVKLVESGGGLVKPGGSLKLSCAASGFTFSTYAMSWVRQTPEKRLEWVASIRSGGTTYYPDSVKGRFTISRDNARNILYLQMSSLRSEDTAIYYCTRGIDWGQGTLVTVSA VL: EIVMTQSPATLSVSPGERATLSCKASQSVNNDVAWYQQKPGQAPRLLIYYASNRYTGIPARFSGSGSGTEFTLTISSLQSEDFAVYYCQQDYSSWTFGGGTKVEIKR', 0.624);
